Tested on: SK-OV-3 ovarian
ASSAY_TEXT: NCI tumour cell line growth inhibition, 48 h
MEASURE_NAME: GI50

// below: answered molecules
MOLECULE	GI50
O=C1C(Cl)=C(NCc2ccco2)C(=O)c2ccccc21	40.3 µM
O=C1c2ccccc2-c2c1c1ccccc1c(=O)n2CCCn1ccnc1	6.68 µM
COc1cc(C2CC(c3ccc(Nc4ccnc5cc(Cl)ccc45)cc3)=NN2c2ccc(Cl)cc2)cc(OC)c1OC (centres undefined)	3.26 µM

Form: item O=C1C(=O)c2cccnc2-c2ncccc21 ; test system SK-OV-3 ovarian; GI50: 1.16 µM

Form: item CCOC(=O)c1c2c(n3ccccc13)C(=O)c1ncccc1C2=O ; test system SK-OV-3 ovarian; GI50: 0.0683 µM

Form: item Cn1cc(-c2ccc(-c3ccc(C4=NC5(CC5)C(=O)N4C[C@@H]4CCN(C(=O)C5CC5)C4)cc3)cc2)cn1 ; test system SK-OV-3 ovarian; GI50: 29.9 µM

====

Test system: MALME-3M melanoma
ASSAY_TEXT: NCI tumour cell line growth inhibition, 48 h
MEASURE_NAME: log10 of TGI (log10 of the value in µM)
Transform log10 | Measure TGI | Unit µM

// below: answered compounds
COMPOUND	ASSAY_TARGET	MEASURE_NAME	REPORTED_VALUE
O=C(/C=C/c1ccc(C(F)(F)F)cc1)c1ccc(Nc2nc(NCCO)nc(Nc3ccc(Cl)cc3)n2)cc1	MALME-3M melanoma	log10 of TGI	1.45
C=C1CC2(OC1=O)C(=O)Nc1ccccc12 (stereo not given)	MALME-3M melanoma	log10 of TGI	0.42
C=C1CCC([N+](=O)[O-])[C@](C)(N=O)CC[C@@H]2C1CC2(C)C (stereo not given in full)	MALME-3M melanoma	log10 of TGI	1.69
O=C1C(c2c(O)[nH]c3ccc(Br)cc23)=Nc2ccccc21	MALME-3M melanoma	log10 of TGI	1.65

For reference, reported log10 of TGI for O=C(Nc1ccc([N+](=O)[O-])cc1Cl)c1cccc([N+](=O)[O-])c1O stands at 0.67

====

Tested on: HL-60(TB) leukemia
ASSAY_TEXT: NCI tumour cell line growth inhibition, 48 h; in the data active means GI50 below about 0.43 µM; inactive means the rest
Valid outcomes are listed here; reply with one: active, inactive

CCN(CC)c1ccc(C(=O)c2ccc(N(CC)CC)cc2)cc1 active

Okay, now this molecule:
[Q] Could you kindly confirm the outcome this assay logged for O=C(OC[C@H]1O[C@H](OC(=O)c2cc(O)c(O)c(OC(=O)c3cc(O)c(O)c(O)c3)c2)[C@H](OC(=O)c2cc(O)c(O)c(OC(=O)c3cc(O)c(O)c(O)c3)c2)[C@@H](OC(=O)c2cc(O)c(O)c(OC(=O)c3cc(O)c(O)c(O)c3)c2)[C@@H]1OC(=O)c1cc(O)c(O)c(OC(=O)c2cc(O)c(O)c(O)c2)c1)c1cc(O)c(O)c(OC(=O)c2cc(O)c(O)c(O)c2)c1 ?
[A] inactive

====

Test system: CAKI-1 renal
ASSAY_TEXT: NCI tumour cell line growth inhibition, 48 h
MEASURE_NAME: TGI

O=C1C(Cl)=C(Nc2ccc(S(=O)(=O)Nc3ccccn3)cc2)C(=O)c2ccccc21 > 52.1 µM
C=C1C(=O)O[C@H]2[C@H]1CC/C(Cn1cc(-c3ccccc3C(F)(F)F)nn1)=C\CC[C@@]1(C)O[C@@H]21 2.63 µM
COc1ccc(-c2ccc(-c3ccc(C(=N)N)o3)o2)cc1 4.29 µM
COc1ccccc1C(=O)c1c(NCc2ccccc2)c(=O)c1=O > 100 µM
Cc1cc(C)c(-n2c(-c3ccc(Br)cc3)cs/c2=N\N=C2C=C(C(C)(C)C)C(=O)C(C(C)(C)C)=C2)c(C)c1 > 100 µM
COc1cc(Cc2nccc3cc(OC)c(OC)cc23)c(N=NN(C)C)cc1OC 22.3 µM
CC(=O)OCc1ccc2oc(=O)c(C(=O)Oc3ccccc3)cc2c1 38.5 µM
COc1ccc2nc(-c3ccc(O)cc3)sc2c1 57.5 µM

For reference, reported TGI for O=c1cccccc1[O-].O=c1cccccc1[O-].O=c1cccccc1[O-].[La+3] stands at > 100 µM

For reference, reported TGI for Clc1ccc(C(n2cc(Br)cn2)n2cc(Br)cn2)cc1 stands at 23.4 µM
